All figures here come from PubChem BioAssay (NCI).

System: OVCAR-3 ovarian
procedure-details: NCI tumour cell line growth inhibition, 48 h; in the data active means GI50 below about 0.43 µM; inactive means the rest
# output must be one of active, inactive

Example entries and their recorded answers appear below.
compound="N#CC1=C(N)NC(=O)C(C#N)C12Nc1ccccc1S2 (stereo unspecified)" assigned_category=inactive
compound="CCN1C(=O)N(CC)C2C1NN=c1s/c(=C3\\C(=O)Nc4ccccc43)c(=O)n12 (stereo unspecified)" assigned_category=active
compound=CN(C)CCNC(=O)c1ccc2c(c1)oc1cc3ccccc3c(=O)n12 assigned_category=inactive
compound=O=C(O)CCCN1C(=O)/C(=C/C(Cl)=C/c2ccccc2)SC1=S assigned_category=inactive
compound=COc1ccc(C2=Nn3c(nnc3-c3ccc(F)c(Cl)c3)SC2)cc1 assigned_category=inactive
compound=O=C(CSSCC(=O)c1ccc(Cl)cc1)c1ccc(Cl)cc1 assigned_category=inactive

Enquiry: Could you check what this test reported for O=C1/C(=C/c2ccc(F)cc2)COc2ccc(O)c(O)c21 ?
Return: inactive

Enquiry: So what was the verdict on O=[N+]([O-])c1ccccc1/C=N\NC(=S)N/N=C/c1ccccc1[N+](=O)[O-] in this test?
Return: inactive

Enquiry: Entry OCc1c(-c2cccs2)oc(-c2cccs2)c1CO : call = ?
Return: inactive

Enquiry: State the result this test recorded for COc1ccc(/C=C\c2cc(OC)c(OC)c(OC)c2)cc1NC(=O)/C=C/c1ccc(OC)c(OC)c1 .
Return: inactive

Enquiry: Please share the test call associated with ClCCCN1CCN(CCCl)CC1 .
Return: inactive
